Assay type: in vivo, Sprague-Dawley rats
experimental-context: male, Sprague-Dawley, rat, liver, iv, 30 mg/kg

{"molecule": "COc1ccc2cc1Oc1ccc(cc1)C[C@H]1c3cc(c(OC)cc3CCN1C)Oc1c(OC)c(OC)cc3c1[C@H](C2)N(C)CC3 [tetrandrine, Tetrandrine]", "Tmax / h": 2}

* * *

Format: in vivo, Sprague-Dawley rats
experimental-context: male, Sprague-Dawley, rat, lung, iv, 30 mg/kg
measure: Tmax (min)

{"entry-smiles": "COc1ccc2cc1Oc1ccc(cc1)C[C@H]1c3cc(c(OC)cc3CCN1C)Oc1c(OC)c(OC)cc3c1[C@H](C2)N(C)CC3", "assay-value": 10}

* * *

Type: in vivo, Sprague-Dawley rats
experimental-context: male, Sprague-Dawley, rat, kidney, iv, 30 mg/kg
measure: Tmax (min)

{"molecule": "COc1ccc2cc1Oc1ccc(cc1)C[C@H]1c3cc(c(OC)cc3CCN1C)Oc1c(OC)c(OC)cc3c1[C@H](C2)N(C)CC3 [tetrandrine, Tetrandrine]", "unit-descriptor": "min", "assay-value": 30}

These data points were gathered from paper PMC6401406.
